- Tested on: LXFL 529 NSCLC
- test_details: NCI tumour cell line growth inhibition, 48 h
parameter: TGI

{"molecule": "Clc1ccc2nc(-c3ccccc3)nc(Cl)c2c1", "obs_value": "> 100 µM"}
{"molecule": "O=S(=O)(c1ccccc1)n1cc(C[P+](c2ccccc2)(c2ccccc2)c2ccccc2)c2ccccc21", "obs_value": "8.26 µM"}
{"molecule": "CC1(C)C=N[N+]2(C)C3C=CC(CC3)C12 (centres undefined)", "obs_value": "> 100 µM"}
{"molecule": "CNS(=O)(=O)NN(C)S(=O)(=O)c1ccc2ccccc2c1", "obs_value": "> 100 µM"}
{"molecule": "CC(=O)C(CN(C)C)C(c1ccccc1)c1c(O)c2ccccc2oc1=O (centres undefined)", "obs_value": "> 100 µM"}
{"molecule": "CC1C[C@]2(C[C@@H](C)C(=O)O2)O[C@@H]2CC3(C)[C@@H]4CCC5C(C)(C)OC(=O)C[C@H]6OO[C@]4(CC[C@]3(C)C12)CC56O (some centres undefined)", "obs_value": "> 100 µM"}
{"molecule": "CC12CO[C@@](C)(CC(S(=O)(=O)c3ccccc3)C1)O2 (some centres undefined)", "obs_value": "> 100 µM"}
{"molecule": "Cc1cnc2c(c1)C(=O)C1=C(OC(C)(C)CC1O)C2=O (centres undefined)", "obs_value": "29.9 µM"}
{"molecule": "CC1=C(C(=O)Nc2ccc([N+](=O)[O-])cc2)C(c2ccc3c(c2)OCO3)C(C(=O)Nc2ccc([N+](=O)[O-])cc2)=C(C)N1", "obs_value": "> 100 µM"}

* * *

- Test system: COLO 205 colon
- test_details: NCI tumour cell line growth inhibition, 48 h
parameter: log10 TGI (log10 of the value in µM)

{"compound": "COc1ccc(/C(Cl)=C(\\c2ccc(OCCN(C)C)cc2)c2ccc(OC(=O)C(C)(C)C)cc2)cc1", "log10 TGI": 1.43}
{"compound": "CO[C@@H]1C[C@H]2N3CC[C@@]2(c2cc4c(cc2C3)OCO4)[C@H]2O[C@@H]12", "log10 TGI": 0.35}
{"compound": "NCCOc1ccccc1/C=C1\\c2ccccc2-c2ccc([N+](=O)[O-])cc21", "log10 TGI": 0.54}
{"compound": "C=CC(Br)(CBr)CCC(Br)C(C)(C)Cl (stereo unspecified)", "log10 TGI": 0.64}
{"compound": "N#Cc1c(N)nc(N)nc1N[C@H](c1nc2c(F)ccc(Cl)c2c(=O)n1-c1cccnc1)C1CC1", "log10 TGI": 1.41}
{"compound": "CCN(CC)c1ccc2cc(-c3nnc(-c4ccccc4O)o3)c(=O)oc2c1", "log10 TGI": 1.53}
{"compound": "CC(/C=C/c1ccccc1)=N\\NC(N)=S", "log10 TGI": 1.65}
{"compound": "Cc1cc(N2CCCC2)nc(NCc2cc(Nc3ccnc4cc(Cl)ccc34)ccc2F)n1", "log10 TGI": 0.16}
{"compound": "C[C@@H]1C2=CC[C@@]3(C)C(CCC3[C@H](C)[C@H]3C[C@@]4(C)O[C@@](c5cccnc5)(O3)OC4(C)C)[C@@H]2C2OC2[C@@]12CCC(=O)O2 (stereo partly specified)", "log10 TGI": 1.89}
{"compound": "C/C(=N\\N=C(\\[Se])N(C)C)c1ccccn1", "log10 TGI": 0.31}
{"compound": "CCCCCCOc1ccc(C(=O)N(C)O)cc1", "log10 TGI": 1.75}
{"compound": "O=[n+]1c2ccccc2n([O-])c2cc(Cl)ccc21", "log10 TGI": 1.26}
{"compound": "COC(=O)c1c[nH]c2c1-c1cc(C(=O)OCc3ccccc3)n(S(=O)(=O)c3ccc(C)cc3)c1C(=O)C2=O", "log10 TGI": 0.32}
{"compound": "Cc1cc(=O)[nH]c(NNC(C#N)c2c(O)ccc3ccccc23)n1 (stereo unspecified)", "log10 TGI": 1.76}
{"compound": "COc1ccc(/C=C2\\CN(Cc3cn(CCNc4ccnc5cc(Cl)ccc45)nn3)C/C(=C\\c3ccc(OC)c(OC)c3)C2=O)cc1OC", "log10 TGI": 0.59}
{"compound": "c1cncc(C2Nc3cccc4cccc(c34)N2)c1", "log10 TGI": 1.67}
{"compound": "CN1CCN(Cc2ccc(NC(=O)c3cncc(C#Cc4cncc5nccnc45)c3)cc2C(F)(F)F)CC1", "log10 TGI": 0.85}

* * *

Each item that follows carries a reported TGI.
- Test system: SW-620 colon
- test_details: NCI tumour cell line growth inhibition, 48 h
parameter: TGI

{"compound": "COc1ccc(/C=C2\\CN(Cc3cn(CCNc4ccnc5cc(Cl)ccc45)nn3)C/C(=C\\c3ccc(OC)c(OC)c3)C2=O)cc1OC", "obs_value": "6.15 µM"}
{"compound": "COC(=O)C1=CN(C2CCCCC2)C2(c3ccccc3)c3ccccc3C(=O)OC(=O)C12 (stereo not drawn)", "obs_value": "> 100 µM"}
{"compound": "CC(C)(CCCCC(C)(C)C1NC(=O)N1)C1NC(=O)N1", "obs_value": "> 10 µM"}
{"compound": "Cc1ccc(C2=C(c3ccc(C)cc3)C3(c4ccc(C)cc4)C4C(=O)c5ccccc5C(=O)C4C2(c2ccc(C)cc2)S3=O)cc1 (stereo not drawn)", "obs_value": "> 100 µM"}
{"compound": "COc1c(-c2ccc(O)c(O)c2)oc2c(O)c(O)cc(O)c2c1=O", "obs_value": "43.9 µM"}
{"compound": "CC1(C)C(=O)/C=C\\C(=O)C(C)(C)C(=O)/C=C\\C(=O)C(C)(C)C(=O)/C=C\\C(=O)C(C)(C)C(=O)/C=C\\C1=O", "obs_value": "28.1 µM"}
{"compound": "O=C1Nc2ccccc2/C1=C\\c1nc(C2CCN(S(=O)(=O)c3ccc(F)cc3)CC2)n2ccccc12", "obs_value": "> 100 µM"}
{"compound": "CCc1cc2ncc(CN3CCN(c4ccc(C(=O)NC)nc4)CC3)cc2[nH]c1=O", "obs_value": "> 100 µM"}

* * *

- System: HOP-62 NSCLC
- test_details: NCI tumour cell line growth inhibition, 48 h
# TGI per entry

{"molecule": "COc1ccc(/C=C2/NC(=S)N=C2Cl)cc1", "TGI": "> 100 µM"}
{"molecule": "N#Cc1c(N)nc(N)nc1N[C@H](c1nc2c(F)ccc(Cl)c2c(=O)n1-c1cccnc1)C1CC1", "TGI": "> 100 µM"}
{"molecule": "CC1(C)C2CC3C4CC5(Nc6ccccc6C5N41)[C@]3(C)CC2=O (stereo not given in full)", "TGI": "> 50 µM"}
{"molecule": "Clc1ccc(-c2ccc(-c3nnc(COc4ccc(OCc5nnc(-c6ccc(-c7ccc(Cl)cc7Cl)o6)o5)c(Cl)c4)o3)o2)c(Cl)c1", "TGI": "> 100 µM"}
{"molecule": "CCOC(=O)c1c(-c2ccc(Br)cc2)ccn1C", "TGI": "> 10 µM"}
{"molecule": "Nc1c(-c2ccccc2[N+](=O)[O-])nc2ccccn12", "TGI": "> 100 µM"}
{"molecule": "NCCSCc1ccccc1Cl", "TGI": "> 100 µM"}
{"molecule": "CN(C)C=NCCN1CCOCC1", "TGI": "> 100 µM"}
{"molecule": "CCOC(=O)/C=C/[C@H](O)[C@@H](O)/C=C/C(=O)OCC", "TGI": "85 µM"}
{"molecule": "C=C(C)C(O)C(O)C[C@@H](C)C1CC[C@]23C[C@]12CCC1[C@@]2(C)CCC(OC(C)=O)C(C)(C)C2CC(OC2OC(CO)C(O)C(O)C2O)[C@]13C (stereo not given in full)", "TGI": "31.9 µM"}

* * *

- Test system: NCI-H226 lung
- test_details: NCI tumour cell line growth inhibition, 48 h

{"molecule": "COC(=O)C1=CN(C2CCCCC2)C2(c3ccccc3)c3ccccc3C(=O)OC(=O)C12 (stereo not given)", "result_operator": ">", "TGI / µM": 100}
{"molecule": "C=C(C)C(O)C(O)C[C@@H](C)C1CC[C@]23C[C@]12CCC1[C@@]2(C)CCC(OC(C)=O)C(C)(C)C2CC(OC2OC(CO)C(O)C(O)C2O)[C@]13C (stereo not given in full)", "result_operator": "=", "TGI / µM": 39.9}
{"molecule": "Fc1cccc(Cl)c1C1SCc2nc3cc4ccccc4cc3n21 (stereo not given)", "result_operator": ">", "TGI / µM": 100}
{"molecule": "CC(=O)C(CN(C)C)C(c1ccccc1)c1c(O)c2ccccc2oc1=O (stereo not given)", "result_operator": ">", "TGI / µM": 100}
{"molecule": "CC(C)(C)OC(=O)c1ccc(NCC2=CC(=O)C=CC2=O)cc1", "result_operator": "=", "TGI / µM": 40.5}

* * *

- Test system: HOP-18 NSCLC
- test_details: NCI tumour cell line growth inhibition, 48 h

{"compound": "Cc1ccc(-c2cc(=O)c3cc(C)c(C)c(C(=O)O)c3o2)cc1N", "system_tested": "HOP-18 NSCLC", "TGI": "> 100 µM"}
{"compound": "CSc1nc(NC2OC(COC(C)=O)C(OC(C)=O)C(OC(C)=O)C2OC(C)=O)c(-c2csc(N)n2)c(=O)n1C (stereo not drawn)", "system_tested": "HOP-18 NSCLC", "TGI": "> 100 µM"}
{"compound": "C[C@@H]1C2=CC[C@@]3(C)C(CCC3[C@H](C)[C@H]3C[C@@]4(C)O[C@@](c5cccnc5)(O3)OC4(C)C)[C@@H]2C2OC2[C@@]12CCC(=O)O2 (stereo partly drawn)", "system_tested": "HOP-18 NSCLC", "TGI": "87.1 µM"}
{"compound": "O=S1(=O)CCCS(=O)(=O)C(c2ccccc2)=C1c1ccccc1", "system_tested": "HOP-18 NSCLC", "TGI": "> 100 µM"}
{"compound": "Cc1cnc2c(c1)C(=O)C1=C(OC(C)(C)CC1O)C2=O (stereo not drawn)", "system_tested": "HOP-18 NSCLC", "TGI": "29.3 µM"}
{"compound": "CN[C@@H](C)[C@H](N)c1ccccc1", "system_tested": "HOP-18 NSCLC", "TGI": "> 100 µM"}
{"compound": "CC1=C(C(=O)Nc2ccc([N+](=O)[O-])cc2)C(c2ccc3c(c2)OCO3)C(C(=O)Nc2ccc([N+](=O)[O-])cc2)=C(C)N1", "system_tested": "HOP-18 NSCLC", "TGI": "> 100 µM"}
{"compound": "C=C1C2CC(OC(C)=O)C3(C)C(c4ccoc4)OC(=O)[C@@H](O)[C@]13OC1C[C@H](OC(C)=O)C(C)(C)[C@H](CC(=O)OC)[C@]12C (stereo partly drawn)", "system_tested": "HOP-18 NSCLC", "TGI": "> 100 µM"}
